measurement-protocol: chemical genetic growth profiling, strain panel (AID 1159580);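 further: tested at 20 µM; growth read once vehicle control cultures reached saturation at 30 °C; 1 = growth at the plate median or of vehicle wells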
measurement-parameters: S. cerevisiae deletion strains, growth OD, locus YLL026W
The whole screen tested about 5,500 compounds, of which about 2,000 (36%) were called active. About 18% were inconclusive and are not listed. No stated cut-off is given here; in the data, active means normalized growth mostly below about 0.91 (no sharp cut-off); inconclusive means no clear call, values can overlap the other calls; inactive means mostly above about 0.92. This is one part of the list.
Hello, when you answer, please use one of the following outcomes: active, inactive

* NC(CO)C(=O)NNCc1ccc(O)c(O)c1O (stereo not drawn) | inactive

Could you please tell me the result logged for C[C@@H]1C(=O)OC2[C@H](O)C34[C@@H]5OC(=O)[C@@]3(O[C@@H]3OC(=O)[C@H](O)[C@@]34[C@H](C(C)(C)C)[C@H]5O)[C@]21O (stereo partly drawn) in this assay? inactive

Could you please tell me the result logged for C=C1CCC(OC(C)=O)/C(C)=C/C[C@@H]2[C@@H]1CC2(C)C (stereo partly drawn) in this assay? inactive

Could you please tell me the result logged for Cc1cccc(C)c1NC1=NCCCS1 in this assay? inactive

Could you please tell me the result logged for C=CC(N)CCC(=O)O (stereo not drawn) in this assay? inactive

----------
measurement-protocol: chemical genetic growth profiling, strain panel (AID 1159580);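 further: tested at 20 µM; growth read once vehicle control cultures reached saturation at 30 °C; 1 = growth at the plate median or of vehicle wells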
measurement-parameters: S. cerevisiae deletion strains, growth OD, locus YDR150W, strain NUM1, stronger effect = lower value
Out of some 5,500 compounds screened, about 2,000 (36%) were called active. Another 18% or so got no clear call; they are omitted. The list shows a part of the results.
Field: normalized growth. Provide a value for each of the compounds that follow.
Answers are plain numbers.

# count of solved cases: 5
* CC(C)[C@@H]1CC[C@@H](C)C[C@H]1O | 1.01
* CC(=O)Oc1c(C)cccc1C(=O)O | 1.01
* Oc1ccc(Cl)cc1Cc1cc(Cl)ccc1O | 0.141
* C=C1C(=O)O[C@@H]2C3O[C@]3(C)CC/C=C(\C)CC[C@@H]12 (some centres not stated) | 0.917
* Cc1c(Cl)cccc1Nc1ccccc1C(=O)O | 0.836

Hi team, please reply with normalized growth for each item in this list.
1. COc1cc([C@@H]2c3cc4c(c(O)c3C[C@H]3COC(=O)[C@@H]32)OCO4)cc(OC)c1OC
2. CC12NC(=O)NC1(C)NC(=O)N2 (configuration not stated)
3. Cc1onc(-c2c(F)cccc2Cl)c1C(=O)Oc1ccccc1
4. CC1(C)O[C@@H]2CC3C4CCC5=CC(=O)CCC5(C)C4(F)C(O)CC3(C)[C@]2(C(=O)CCl)O1 (some centres not stated)
5. C[N+](C)(CCCCCC[N+](C)(C)CCCN1C(=O)c2cccc3cccc(c23)C1=O)CCCN1C(=O)c2cccc3cccc(c23)C1=O
6. Oc1ccc2c(c1)OCC1c3cc4c(cc3OC21)OCO4 (configuration not stated)
7. CC(C)(C)C1(O)CCN2CC3c4ccccc4CCc4cccc(c43)C2C1 (configuration not stated)
8. Cc1cccc(Nc2ccccc2C(=O)O)c1C

[0.973, 0.997, 0.943, 0.981, 1, 1, 1, 0.894]

Hi team, please reply with normalized growth for each item in this list.
1. COC(=O)c1c(-c2c(Cl)cccc2Cl)noc1NC(=O)NN1CCCCC1
2. Cn1c(=O)c2[nH]cnc2n(C)c1=O
3. OCc1ccccc1O

1: 0.993; 2: 0.99; 3: 1.02

Hi team, please reply with normalized growth for each item in this list.
1. CCCCCCCCCCCCCC(=O)O[C@@H]1[C@@H](C)[C@@]2(O)[C@@H](C=C(CO)C[C@@]3(O)C(=O)C(C)=C[C@@H]23)C2C(C)(C)[C@@]21OC(C)=O (some centres not stated)
2. Cc1onc(-c2c(Cl)cccc2Cl)c1C(=O)Oc1ccc(Cl)c(Cl)c1
3. Cc1onc(-c2c(Cl)cccc2Cl)c1C(=O)OCC(F)(F)F
4. CCOC(=O)[C@H](CCc1ccccc1)N[C@@H](C)C(=O)N1[C@H](C(=O)O)C[C@@H]2CCC[C@@H]21
5. Cc1onc(-c2ccccc2)c1NC(=O)Nc1c(Cl)cccc1Cl

1: 0.999; 2: 1.01; 3: 0.982; 4: 1.01; 5: 0.973

Please fill in: normalized growth reported for C=CCSCC1Nc2cc(Cl)c(S(N)(=O)=O)cc2S(=O)(=O)N1 (configuration not stated) = 1.01
